# Tgt: GABA A receptor alpha-3/beta-2/gamma-2 (Rattus norvegicus, UniProt P18508+P20236+P63138)
# Sequence (P18508 whole entry): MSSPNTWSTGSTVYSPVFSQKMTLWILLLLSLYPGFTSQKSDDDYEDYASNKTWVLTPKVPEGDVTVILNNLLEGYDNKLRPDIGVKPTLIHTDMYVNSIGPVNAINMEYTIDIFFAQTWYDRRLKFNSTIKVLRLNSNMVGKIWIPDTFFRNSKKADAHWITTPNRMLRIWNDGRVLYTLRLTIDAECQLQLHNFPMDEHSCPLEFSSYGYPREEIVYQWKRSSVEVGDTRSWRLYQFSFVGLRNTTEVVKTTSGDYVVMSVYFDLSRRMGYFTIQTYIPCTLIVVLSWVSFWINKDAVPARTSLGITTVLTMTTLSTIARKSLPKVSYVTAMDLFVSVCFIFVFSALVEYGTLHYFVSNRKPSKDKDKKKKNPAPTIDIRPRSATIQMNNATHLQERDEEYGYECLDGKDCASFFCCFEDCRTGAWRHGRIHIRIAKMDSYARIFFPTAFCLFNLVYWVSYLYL
# Sequence (P20236 whole entry): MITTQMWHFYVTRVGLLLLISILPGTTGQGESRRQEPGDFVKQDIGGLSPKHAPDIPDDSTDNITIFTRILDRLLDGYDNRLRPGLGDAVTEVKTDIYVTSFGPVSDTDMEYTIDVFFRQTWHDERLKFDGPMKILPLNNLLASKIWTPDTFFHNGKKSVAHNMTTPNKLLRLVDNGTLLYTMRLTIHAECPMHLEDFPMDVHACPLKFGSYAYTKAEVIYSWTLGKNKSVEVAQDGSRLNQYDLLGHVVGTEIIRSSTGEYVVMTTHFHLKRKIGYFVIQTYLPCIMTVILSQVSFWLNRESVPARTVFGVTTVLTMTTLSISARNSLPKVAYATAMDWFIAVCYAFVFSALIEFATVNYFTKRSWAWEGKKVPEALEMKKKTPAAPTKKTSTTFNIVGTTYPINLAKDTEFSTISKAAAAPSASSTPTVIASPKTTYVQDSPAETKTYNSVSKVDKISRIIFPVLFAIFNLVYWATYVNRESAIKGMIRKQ
# Sequence (P63138 whole entry): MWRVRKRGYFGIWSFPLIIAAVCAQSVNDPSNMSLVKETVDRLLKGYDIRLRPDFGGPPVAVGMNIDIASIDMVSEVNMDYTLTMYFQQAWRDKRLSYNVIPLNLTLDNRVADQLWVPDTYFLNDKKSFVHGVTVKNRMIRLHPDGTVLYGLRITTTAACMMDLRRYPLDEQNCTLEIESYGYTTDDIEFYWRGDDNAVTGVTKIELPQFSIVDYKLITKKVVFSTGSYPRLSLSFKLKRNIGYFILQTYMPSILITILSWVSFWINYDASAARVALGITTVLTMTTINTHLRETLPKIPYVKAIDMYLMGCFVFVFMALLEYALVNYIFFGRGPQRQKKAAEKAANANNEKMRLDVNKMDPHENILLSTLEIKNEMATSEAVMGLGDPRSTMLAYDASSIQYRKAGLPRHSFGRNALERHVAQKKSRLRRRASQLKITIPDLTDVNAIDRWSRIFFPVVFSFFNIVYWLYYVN
# Assay Comment: Displacement of [3H]Ro15-1788 from rat recombinant GABA alpha-3-beta-2-gamma-2 receptor expressed in HEK293 cells
Ki for assorted molecules
Parameter: Ki (nM)

> print(dat)
                      chemical.smiles  output.unit  quantitative.readout
1  CCOc1ccc2n[n+]([O-])c3c(I)cnn3c2c1           nM                  12.3
2  CCOc1ccc2c(c1)n1ncc(I)c1n[n+]2[O-]           nM                    34
3           CCOc1ccc2nnc3c(I)cnn3c2c1           nM                   133
